Tested on: blackgrass
Test: Test A preemergence
Assay type: in vivo, Alopecurus myosuroides
Details: 500 g ai/ha, visual injury after 10 days, 0 to 100 scale, 0 is no effect, 100 is complete control
# maps each entry to its Plant response rating, Blackgrass
// no unit string in output, number only

Illustrative cases are given below, each with its answer.
C=CCOc1ccc(-n2cnc(C(C)C)n2)cc1C(=O)N1C[C@H](C)Oc2c(Cl)cccc21 : 70
CC(C)c1ncn(-c2cc(C(=O)N3C[C@H](C)Oc4c(Cl)cccc43)c3ccccc3c2)n1 : 90
CC(C)Cc1ncn(-c2cccc(C(=O)N3C[C@H](C)Oc4c(Cl)cccc43)c2)n1 : 80

Proceeding to the next molecule to report its Plant response rating, Blackgrass.
The reported Plant response rating, Blackgrass of the molecule `COc1cc(C(=O)N2C[C@H](C)Oc3c(Cl)cccc32)cc(-n2cncn2)c1` was 90

* * *

Test system: foxtail, giant
Assay: Test A preemergence
Type: in vivo, Setaria faberi
Conditions: 125 g ai/ha, visual injury after 10 days, 0 to 100 scale, 0 is no effect, 100 is complete control
# Plant response rating, Foxtail, Giant annotations
Answer as a number with no unit attached.

CC(C)Oc1ccc(-n2cnc(C(C)C)n2)cc1C(=O)N1C[C@H](C)Oc2c(Cl)cccc21 : 90

Lab note: measured Plant response rating, Foxtail, Giant of `CCCCc1ncn(-c2cccc(C(=O)N3C[C@H](C)Oc4c(C)cccc43)c2)n1` was 0

So for `CCOc1ccc(-n2cnc(C(C)C)n2)cc1C(=O)N1C[C@H](C)Oc2c(Cl)cccc21` , the logged Plant response rating, Foxtail, Giant turned out to be 100

For `CCc1ncn(-c2ccc(CC)c(C(=O)N3C[C@H](C)Oc4c(Cl)cccc43)c2)n1` the molecule record lists Plant response rating, Foxtail, Giant as 100

* * *

Documented Plant response rating, Ducksalad across a set of compounds
Tested on: ducksalad
Assay: Test B flooded paddy test
Assay type: in vivo, Heteranthera limosa
Settings: 250 g ai/ha, Flood, 13 days, 0 to 100 scale (0 no effect, 100 complete control)
Please respond with just the number, no unit label.

CC1CN(C(=O)c2cccc(-n3cncn3)c2)c2c(F)cccc2O1 (stereo not drawn) [Compound 28] : 80
Cc1cc(C(=O)N2CC(C)Oc3c(Cl)cccc32)cc(-n2cncn2)c1 (stereo not drawn) [Compound 32] : 0
CCc1ncn(-c2ccc(C)c(C(=O)N3C[C@H](C)Oc4c(C)cccc43)c2)n1 [Compound 98] : 65
C[C@H]1CN(C(=O)c2cc(C3CC3)cc(-n3cncn3)c2)c2cccc(Cl)c2O1 [Compound 136] : 0
Cc1cccc2c1O[C@@H](C)CN2C(=O)c1cccc(-n2cnc(C(C)C)n2)c1 [Compound 55] : 75
Cc1cccc2c1O[C@@H](C)CN2C(=O)c1cccc(-n2cncn2)c1F [Compound 53] : 0
Cc1ccc(-n2cnc(Br)n2)cc1C(=O)N1C[C@H](C)Oc2c(Cl)cccc21 [Compound 62] : 0
Cc1cc(F)cc2c1OC(C)CN2C(=O)c1cccc(-n2cncn2)c1 (stereo not drawn) [Compound 44] : 0
Cc1ccc(-n2cnc(C(C)(C)O)n2)cc1C(=O)N1C[C@H](C)Oc2c(Cl)cccc21 [Compound 149] : 75
Cc1cccc2c1O[C@@H](C)CN2C(=O)c1cc(-n2cncn2)ccc1Cl [Compound 60] : 45

Plant response rating, Ducksalad reading for Cc1ccc(-n2cncn2)cc1C(=O)N1CC(C)Oc2c(Cl)cccc21 (stereo not drawn) [Compound 33] : 30

Please fill in: Plant response rating, Ducksalad reported for CCc1ncn(-c2cccc(C(=O)N3C[C@H](C)Oc4c(C)cccc43)c2)n1 [Compound 71] = 65

Plant response rating, Ducksalad recorded for this compound, COc1cc(C(=O)N2C[C@H](C)Oc3c(Cl)cccc32)cc(-n2cncn2)c1 [Compound 138] , is 70

The recorded Plant response rating, Ducksalad for O=C(c1ccnc(-n2cncn2)c1)N1CC(C(F)(F)F)Oc2c(Cl)cccc21 (stereo not drawn) [Compound 34] is 0

The measured Plant response rating, Ducksalad associated with CCC1CN(C(=O)c2cccc(-n3cncn3)c2)c2cccc(Cl)c2O1 (racemic) [Compound 7] reads 0
